Data origin: the RNAGym collection of RNA variant scans (doi:10.7554/elife.80360)

B1: CPEB3 Ribozyme (parent)
chain: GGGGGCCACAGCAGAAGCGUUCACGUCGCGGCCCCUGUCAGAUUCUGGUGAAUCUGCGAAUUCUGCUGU

# Variants of: B1
# test method notes: self-cleavage, relative activity (ratio to wild type); higher = more cleavage; co-transcriptional
Kindly return T if reported self-cleavage is no lower than 0.4; return F if it is lower.

Reference set, count: 8
[in] Decide: self-cleavage of GGGGGCCACAGCAGAAGCGUUCACGUCGCGGCCCCUGUCAGAUUCUGCUGAAUCUGCGAAUUCUGCUUU [G48C G68U] >= 0.4?
[out] T

[in] State whether the measured self-cleavage reaches 0.4, counting equality as reaching it, for GGGGGCCACAGCAAAAGCGUUCACGUCGGGGCCCCUGUCAGAUUCUGGUGAAUCUGCGAAUUCUGCUGU [G14A C29G]
[out] F

[in] Determine whether this variant has self-cleavage no lower than 0.4: GGGUGCCACCGCAGAAGCGUUCACGUCGCGGCCCCUGUCAGAUUCUGGUGAAUCUGCGAAUUCUGCUGU [G4U A10C]
[out] T

[in] Determine whether measured self-cleavage meets or exceeds 0.4 for GGGGGCCACAGCAGAAGCGUUCACGUCGCCGCCCCUGUCAGAAUCUGGUGAAUCUGCGAAUUCUGCUGU [G30C U43A]
[out] T

[in] Entry GGGGGCCACAGCAGAAGCGUUCACGUCGCGGCCCCUGUCAGAUGCUGGUGAAUCUGAGAAUUCUGCUGU [U44G C57A] : is its self-cleavage no less than 0.4?
[out] F

[in] Can GGGGGCCACAGCAGAAGCGUUCUCGUCGCGGCCCCUGUCAGAUUCUGGUGAAUCUGCGAAUUCCGCUGU [A23U U64C] be said to have self-cleavage at or above 0.4?
[out] T

[in] API: above_or_equal(metric=self-cleavage, cutoff=0.4) for item GGGGGCCACAGCAGAAGCGUUCACGUCGCCGCCGCUGUCAGAUUCUGGUGAAUCUGCGAAUUCUGCUGU [G30C C34G]
[out] F

[in] Answer whether self-cleavage of GGGGGCCACAGCAGAAGCGUUCGCGUCGCGGCCCCUGUCAGAUUCUGGUGAAUCUGCGAAUUCGGCUGU [A23G U64G] is greater than or equal to 0.4.
[out] T

Others:
[in] hey, is self-cleavage for this one >= 0.4? GGGGGCCACGGCAGAAGCGUUCACGUCGAGGCCCCUGUCAGAUUCUGGUGAAUCUGCGAAUUCUGCUGU [A10G C29A]
[out] F

[in] Has GGGGACCACAGCAGAAGCGUUCACGUCGCGGCCCCUGUCAGAUUCUGGUGAAUCUGCGAAUUCUUCUGU [G5A G65U] a recorded self-cleavage greater than or equal to 0.4?
[out] T

[in] Is self-cleavage for UGGGGCCACAUCAGAAGCGUUCACGUCGCGGCCCCUGUCAGAUUCUGGUGAAUCUGCGAAUUCUGCUGU [G1U G11U] at or above 0.4?
[out] F
